- TEST_DESCRIPTION: in vivo
- CONDITION_LABEL: male, C57BL/6J, mouse, brain concentration, Mean
PROPERTY: concentration at […] (ng/g)
Reply numerically in ng/g, unit not repeated.

Enquiry: Would you mind telling me what concentration at […] value was observed for "CN1CCc2cccc3c2[C@H]1Cc1ccc(O)c(O)c1-3" ?
Return: 48.4

* * *

- TEST_DESCRIPTION: Plasma and CSF pharmacokinetic study, single sublingual, oral or subcutaneous dose, male Beagle dogs
- Format: in vivo
- CONDITION_LABEL: male, beagle, dog, in vivo, sc, 1 mg/kg, single SC 1 mg/kg; 119 s; individual animal; read-out: CSF concentration
PROPERTY: concentration at 0.033 h (ng/mL)
Hi! Could you send only the number? It should be in ng/mL, unit omitted.

Enquiry: // lookup concentration at 0.033 h for "CN1CCc2cccc3c2[C@@H]1Cc1ccc(O)c(O)c1-3"
Return: 22.6

Just for reference, patent US20230141988A1 is where these values come from.
